Values were extracted from patent US20240158446A1.

Field: Kd. Provide a value for each of the molecules that follow.
# measured on: UniProtKB P01116
# test: Binding to KRAS by surface plasmon resonance (SPR), Single Cycle Kinetics
# condition set: SPR, Single Cycle Kinetics, GDP-bound KRAS wild-type protein; read-out: KRAS KD
One number for each entry, in nM.

Use the examples below as a reference point.
given_smiles=CCC[C@H]1C(=O)N[C@@H]([C@@H](C)CC)C(=O)N(C)CC(=O)N(C)[C@H]2C/C=C\CCN(C2=O)[C@@H](Cc2ccc(C(F)(F)F)cc2)C(=O)N(C)CC(=O)N[C@@H](CCc2cc(F)c(C(F)(F)F)c(F)c2)C(=O)N2C[C@H](OCC)C[C@H]2C(=O)NC2(CC(C)(C)C2)C(=O)N(C)[C@@H](C2CCCC2)C(=O)N(C)[C@H](C(=O)N(C)CC)CC(=O)N1C value=0.12
given_smiles=CCO[C@@H]1C[C@H]2C(=O)NC3(CC(C)(C)C3)C(=O)N(C)[C@@H](C3CCCC3)C(=O)N(C)[C@H](C(=O)N(C)C)CC(=O)N(C)[C@@H](COC)C(=O)N[C@@H]([C@@H](C)CC)C(=O)N(C)CC(=O)N(C)[C@H]3C/C=C\CCN(C3=O)[C@@H](Cc3ccc(C)cc3)C(=O)N(C)CC(=O)N[C@@H](CCc3cc(F)c(C(F)(F)F)c(F)c3)C(=O)N2C1 value=0.043

Short answer for "CCC[C@H]1C(=O)N[C@@H](C2CCCCC2)C(=O)N(C)CC(=O)N(C)[C@H]2C/C=C\CCN(C2=O)[C@@H](Cc2ccc(C(F)(F)F)cc2)C(=O)N(C)CC(=O)N[C@@H](CCc2ccc(C(F)(F)F)c(Cl)c2)C(=O)N2C[C@H](OCC)C[C@H]2C(=O)NC2(CC(C)(C)C2)C(=O)N(C)[C@@H](CC(C)(C)C)C(=O)N(C)[C@H](C(=O)N(C)C)CC(=O)N1C" : Kd was 0.37

---

# measured on: GDP-bound KRAS wild-type protein (Homo sapiens, UniProt P01116)
# Sequence (P01116 whole entry): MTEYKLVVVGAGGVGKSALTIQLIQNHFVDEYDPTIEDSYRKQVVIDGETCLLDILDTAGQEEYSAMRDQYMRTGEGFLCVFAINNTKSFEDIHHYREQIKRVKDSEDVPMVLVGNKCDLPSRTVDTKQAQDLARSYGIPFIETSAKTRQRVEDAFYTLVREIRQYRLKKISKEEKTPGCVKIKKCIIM
# test: Binding to KRAS by surface plasmon resonance (SPR), Single Cycle Kinetics
# condition set: SPR Single Cycle Kinetics, GDP-bound KRAS wild-type protein, 1:1 binding model; read-out: KRAS KD
Where a SMILES comes first, the peptide text is derived from it. Bridges are numbered along the chain shown (N, C = ends). [ ]: non-standard residue; d: D form. The star is where a group is joined. hPhe(3-Cl-4-CF3) = N[C@@H](CCc1ccc(C(F)(F)F)c(Cl)c1)C(=O)O; NMePhe(4-CF3) = CN[C@@H](Cc1ccc(C(F)(F)F)cc1)C(=O)O; NMeGly(cPent) = CN[C@H](C(=O)O)C1CCCC1; NMeD = CN[C@@H](CC(=O)O)C(=O)O; NMeL = CN[C@@H](CC(C)C)C(=O)O; Morpholide = C1CN(*)CCO1; Ac5c = NC1(C(=O)O)CCCC1; Sar = CNCC(=O)O
metric name: pKd
One number for each entry, as −log10 of the molar value.

compound="CCCOC[C@H]1C(=O)N[C@@H]([C@@H](C)CC)C(=O)N(C)CC(=O)N(C)[C@H]2C/C=C\\CCN(C2=O)[C@@H](Cc2ccc(C)cc2)C(=O)N(C)CC(=O)N[C@@H](CCc2ccc(Cl)c(Cl)c2)C(=O)N2C[C@H](OCC)C[C@H]2C(=O)NC2(CC(C)(C)C2)C(=O)N(C)[C@@H](CC(C)(C)C)C(=O)N(C)[C@H](C(=O)N(C)C)CC(=O)N1C [PP2716]" metric_name=pKd value=9.47
compound="CC[C@H](C)[C@@H]1NC(=O)[C@H](CC(C)C)N(C)C(=O)C[C@@H](C(=O)N2CCOCC2)N(C)C(=O)[C@H](C2CCCC2)N(C)C(=O)C2(CCCC2)NC(=O)[C@@H]2CCCN2C(=O)[C@H](CCc2ccc(C(F)(F)F)c(Cl)c2)NC(=O)CN(C)C(=O)[C@H](Cc2ccc(C(F)(F)F)cc2)N2CC=CC[C@@H](C2=O)N(C)C(=O)CN(C)C1=O [PP0462]" metric_name=pKd value=9.49

Value of measured pKd for the entry CC[C@H](C)[C@@H]1NC(=O)[C@H](CC(C)C)N(C)C(=O)C[C@@H](C(=O)N2CCOCC2)N(C)C(=O)[C@H](C2CCCC2)N(C)C(=O)C2(CCCC2)NC(=O)[C@@H]2CCCN2C(=O)[C@H](CCc2ccc(C(F)(F)F)c(Cl)c2)NC(=O)CN(C)C(=O)[C@H](Cc2ccc(C(F)(F)F)cc2)N(C)C(=O)CN(C)C(=O)CN(C)C1=O [PP0076] ([NMeL]I[Sar][Sar][NMePhe(4-CF3)][Sar][hPhe(3-Cl-4-CF3)]P[Ac5c][NMeGly(cPent)][NMeD]-Morpholide; lactam N-11) : 10.19

---

# measured on: GDP-bound KRAS wild-type protein (Homo sapiens)
# test: Binding to KRAS by surface plasmon resonance (SPR), Single Cycle Kinetics
# condition set: SPR, Single Cycle Kinetics, GDP-bound KRAS wild-type protein; read-out: KRAS KD
*1 amine or outer side, *2 acyl side, *3 side chain or, on linkers, in order; H or OH if unused. Where a SMILES comes first, the peptide text is derived from it. Bridges are numbered along the chain shown (N, C = ends). [ ]: non-standard residue; d: D form. The star is where a group is joined. hPhe(3-Cl-4-CF3) = N[C@@H](CCc1ccc(C(F)(F)F)c(Cl)c1)C(=O)O; NPrPhe(4-CF3) = CCCN[C@@H](Cc1ccc(C(F)(F)F)cc1)C(=O)O; NEtAsp = CCN([C@@H](CC(=O)[*:3])C(=O)[*:2])[*:1]; NMeGly(cPent) = CN[C@H](C(=O)O)C1CCCC1; NMeL = CN[C@@H](CC(C)C)C(=O)O; Morpholide = C1CN(*)CCO1; Ac4c = NC1(C(=O)O)CCC1; Sar = CNCC(=O)O
metric name: Kd

Here's what some known entries look like.
molecule="CCCN1C(=O)CN(C)C(=O)CN(C)C(=O)[C@H]([C@@H](C)CC)NC(=O)[C@H](CC(C)C)N(C)C(=O)C[C@@H](C(=O)N2CCOCC2)N(CC)C(=O)[C@H](C2CCCC2)N(C)C(=O)C2(CCC2)NC(=O)[C@@H]2CCCN2C(=O)[C@H](CCc2ccc(C(F)(F)F)c(Cl)c2)NC(=O)CN(C)C(=O)[C@@H]1Cc1ccc(C(F)(F)F)cc1 [PP1953] ([NMeL]I[Sar][Sar][NPrPhe(4-CF3)][Sar][hPhe(3-Cl-4-CF3)]P[Ac4c][NMeGly(cPent)][NEtAsp]-Morpholide; lactam N-11)" value="0.42 nM"
molecule=CCO[C@@H]1C[C@H]2C(=O)NC3(CCC3)C(=O)N(C)[C@@H](C3CCCC3)C(=O)N(C)[C@H](C(=O)N3CCOCC3)CC(=O)N(C)[C@@H](COC)C(=O)N[C@@H]([C@@H](C)CC)C(=O)N(C)CC(=O)N(C)[C@H]3CCCCCN(C3=O)[C@@H](Cc3ccc(F)cc3)C(=O)N(C)CC(=O)N[C@@H](CCc3cc(F)c(C(F)(F)F)c(F)c3)C(=O)N2C1 value="0.091 nM"

Consider now this further molecule.
Record "CC[C@H](C)[C@@H]1NC(=O)[C@H](CC)N(C)C(=O)C[C@@H](C(=O)N(C)C)N(C)C(=O)[C@H](C2CCCC2)N(C)C(=O)C2(CCCC2)N(C)C(=O)[C@@H]2C[C@@H](C)CN2C(=O)[C@H](CCc2cc(F)c(C(F)(F)F)c(F)c2)NC(=O)CN(C)C(=O)[C@H](Cc2ccc(C)cc2)N2CC/C=C\C[C@@H](C2=O)N(C)C(=O)[C@@H]2CCCN2C1=O" . Reported Kd: 0.27 nM

---

# measured on: GDP-bound KRAS wild-type protein (Homo sapiens, UniProt P01116)
# test: Binding to KRAS by surface plasmon resonance (SPR), Single Cycle Kinetics
# condition set: SPR, Single Cycle Kinetics, 1:1 binding model; GDP-bound KRAS wild-type protein; read-out: KRAS KD
Would you mind telling me the reported Kd of each entry?
Give the value; after it, write the unit.

Look over these answered cases.
compound=CCO[C@@H]1C[C@H]2C(=O)NC3(CCC3)C(=O)N(C)[C@@H](C(CC)CC)C(=O)N(C)[C@H](C(=O)N(C)C)CC(=O)N(C)[C@@H](CC(C)C)C(=O)N[C@@H]([C@@H](C)CC)C(=O)N(C)CC(=O)N(C)[C@H]3C/C=C\CCN(C3=O)[C@@H](Cc3ccc(F)cc3C)C(=O)N(C)CC(=O)N[C@@H](CCc3cc(F)c(C(F)(F)F)c(F)c3)C(=O)N2C1 value="0.58 nM"
compound=CCO[C@@H]1C[C@H]2C(=O)NC3(CCC3)C(=O)N(C)[C@@H](C3CCCC3)C(=O)N(C)[C@H](C(=O)N(CC)CC)CC(=O)N(C)[C@@H](C)C(=O)N[C@@H]([C@@H](C)CC)C(=O)N(C)CC(=O)N(C)[C@H]3C/C=C\CCN(C3=O)[C@@H](Cc3ccc(C(F)(F)F)cc3)C(=O)N(C)CC(=O)N[C@@H](CCc3cc(F)c(C(F)(F)F)c(F)c3)C(=O)N2C1 value="0.1 nM"
compound="CCO[C@@H]1C[C@H]2C(=O)NC3(CCC3)C(=O)N(C)[C@@H](C3CCCC3)C(=O)N(C)C(C(C)C)CC(=O)N(C)[C@@H](CC)C(=O)N[C@@H]([C@@H](C)CC)C(=O)N(C)CC(=O)N(C)[C@H]3C/C=C\\CCN(C3=O)[C@@H](Cc3ccc(C(F)(F)F)cc3)C(=O)N(C)CC(=O)N[C@@H](CCc3cc(F)c(C(F)(F)F)c(F)c3)C(=O)N2C1 (stereo partly drawn)" value="0.29 nM"
compound=CCO[C@@H]1C[C@H]2C(=O)NC3(CCC3)C(=O)N(C)[C@@H](C3CCCC3)C(=O)N(C)[C@H](C(=O)N(C)C)CC(=O)N(C)[C@@H](CC3CCCC3)C(=O)N[C@@H]([C@@H](C)CC)C(=O)N(C)CC(=O)N(C)[C@H]3C/C=C\CCN(C3=O)[C@@H](CC3CCC(F)(F)CC3)C(=O)N(C)CC(=O)N[C@@H](CCc3cc(F)c(C(F)(F)F)c(F)c3)C(=O)N2C1 value="0.15 nM"
compound=CCO[C@@H]1C[C@H]2C(=O)NC3(CCCC3)C(=O)N(C)[C@@H](C3CCCC3)C(=O)N(C)[C@H](C(=O)N(C)C)CC(=O)N(C)[C@@H](CC(C)C)C(=O)N[C@@H]([C@@H](C)CC)C(=O)N(C)CC(=O)N(C)[C@H]3C/C=C\CCN(C3=O)[C@@H](CC3CCCCC3)C(=O)N(C)CC(=O)N[C@@H](CCc3cc(F)c(C(F)(F)F)c(F)c3)C(=O)N2C1 value="0.19 nM"

The compound listed as CCO[C@@H]1C[C@H]2C(=O)NC3(CCCC3)C(=O)N(C)[C@@H](C3CCCC3)C(=O)N(C)[C@H](C(=O)N3CCOCC3)CC(=O)N(C)[C@@H](CC)C(=O)N[C@@H]([C@@H](C)CC)C(=O)N(C)CC(=O)N(C)[C@H]3C[C@H](C)C(C)CN(C3=O)[C@@H](Cc3ccc(C(F)(F)F)cc3)C(=O)N(C)CC(=O)N[C@@H](CCc3cc(F)c(C(F)(F)F)c(F)c3)C(=O)N2C1 (stereo partly drawn) shows Kd equal to 0.076 nM
